Listing: inhibition of selected compounds
Molecular target: AP-2 complex subunit beta (Homo sapiens) (UniProt P63010)
Sequence (P63010 whole entry, looked up, one chain of several): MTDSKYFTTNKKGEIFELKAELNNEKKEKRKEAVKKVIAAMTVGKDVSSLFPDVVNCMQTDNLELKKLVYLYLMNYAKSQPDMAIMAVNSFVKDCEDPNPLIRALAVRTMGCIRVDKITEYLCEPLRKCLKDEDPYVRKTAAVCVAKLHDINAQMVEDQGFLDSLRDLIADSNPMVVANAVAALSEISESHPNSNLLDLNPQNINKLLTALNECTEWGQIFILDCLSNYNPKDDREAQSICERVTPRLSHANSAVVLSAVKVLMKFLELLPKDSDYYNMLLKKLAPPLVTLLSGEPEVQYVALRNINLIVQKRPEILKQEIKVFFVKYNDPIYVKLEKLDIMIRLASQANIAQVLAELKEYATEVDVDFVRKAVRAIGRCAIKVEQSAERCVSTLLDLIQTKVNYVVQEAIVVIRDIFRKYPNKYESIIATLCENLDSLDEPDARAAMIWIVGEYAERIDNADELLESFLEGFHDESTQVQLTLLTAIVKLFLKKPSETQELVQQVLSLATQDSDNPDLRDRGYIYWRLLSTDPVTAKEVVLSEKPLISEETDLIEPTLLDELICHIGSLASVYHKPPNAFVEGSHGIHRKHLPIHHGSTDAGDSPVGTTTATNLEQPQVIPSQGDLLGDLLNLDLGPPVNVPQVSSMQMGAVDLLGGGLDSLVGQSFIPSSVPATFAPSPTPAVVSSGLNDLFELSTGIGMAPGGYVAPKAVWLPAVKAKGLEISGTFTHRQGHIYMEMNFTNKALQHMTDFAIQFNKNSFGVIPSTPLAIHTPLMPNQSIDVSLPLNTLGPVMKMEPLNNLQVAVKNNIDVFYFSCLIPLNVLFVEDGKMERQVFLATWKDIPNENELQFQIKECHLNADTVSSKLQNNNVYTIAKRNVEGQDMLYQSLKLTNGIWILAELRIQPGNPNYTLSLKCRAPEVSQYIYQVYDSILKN
Assay: beta-arrestin/AP2 interaction blockers, retest – biochemical, cherry pick 1, flow cytometry beads, confirmation (AID 504908);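 further: loss of bead fluorescence from 50 nM FITC arrestin peptide bound to appendage; 0% = negative control wells and 100% = excess unlabelled arrestin peptide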
Details: GST-AP2 beads, FITC arrestin peptide binding, at 10 µM, hits give high values, GST-fused beta2-adaptin appendage, R879A mutant
Screen size: about 1,300 compounds; about 25 (2%) were called active. These entries were drawn from the full list.
Form entry: value (%) — number only.

{"compound": "COC(=O)c1cc(NC(=O)c2nn(C)c(=O)c3ccccc23)cc(C(=O)OC)c1", "inhibition / %": -5.22}

inhibition value, target or system AP-2 complex subunit beta (Homo sapiens) (UniProt P63010), for CC(Oc1ccccc1)C(=O)NN1Cc2ccccc2C1=N (centres undefined) : -3.2

inhibition value, target or system AP-2 complex subunit beta (Homo sapiens) (UniProt P63010), for O=c1[nH]c2ccccc2n2c(-c3ccccc3)nnc12 : 20.4

inhibition value, target or system AP-2 complex subunit beta (Homo sapiens) (UniProt P63010), for CN(C(=O)COC(=O)c1cc(=O)[nH]c2ccccc12)C1CCCCC1 : -1.7

inhibition value, target or system AP-2 complex subunit beta (Homo sapiens) (UniProt P63010), for CCn1c(=O)n(CC)c2cc(N3CCCC3)c(NC(=O)c3ccccc3Br)cc21 : -0.2

inhibition value, target or system AP-2 complex subunit beta (Homo sapiens) (UniProt P63010), for Cc1ccc(S(=O)(=O)/N=C(/Nc2ccccn2)c2ccc(Cl)cc2)cc1 : 13.7

inhibition value, target or system AP-2 complex subunit beta (Homo sapiens) (UniProt P63010), for CN(C)c1ccc(NC(=O)c2ccncc2)c2ccccc12 : -3.42

* * *

Listing: inhibition of selected compounds
Target: AP-2 complex subunit beta (Homo sapiens)
Test: beta-arrestin/AP2 interaction blockers, retest – biochemical, cherry pick 1, flow cytometry beads, confirmation (AID 504908);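 further: loss of bead fluorescence from 50 nM FITC arrestin peptide bound to appendage; 0% = negative control wells and 100% = excess unlabelled arrestin peptide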
Conditions: GST-AP2 beads, FITC arrestin peptide binding, at 10 µM, hits give high values, GST-fused beta2-adaptin appendage, R879A mutant
Among all 1,300 compounds or so, about 25 (2%) were called active. These entries were drawn from the full list.
Form entry: value (%) — number only.

// worked examples, inhibition included
{"compound": "Cc1ccc(C2(C)NC(=O)N(CC(=O)Nc3ccccc3C(=O)N3CCCCC3)C2=O)cc1 (configuration not stated)", "result number": 0.91}
{"compound": "CN1C(=O)/C(=C/c2ccco2)SC1=Nc1cccc(C(=O)O)c1", "result number": 9.02}
{"compound": "Brc1ccccc1C1Nc2cccc3cccc(c23)N1", "result number": 14.3}
{"compound": "Cc1ccc(S(=O)(=O)N2CCN(C(=O)c3ccccc3-c3nc4ccccc4s3)CC2)c(C)c1", "result number": 15.9}

Input COc1ccc(CCNc2ncnc3c2nnn3Cc2ccccc2)cc1 . Output inhibition: -10.5

Input Cc1ccc(C)c(NC(=S)NNC(=S)Nc2ccc(C(C)C)cc2)c1 . Output inhibition: -5

Input CC(=O)NCCNC(=O)c1cc(-c2cccc3ccccc23)nc2ccccc12 . Output inhibition: -1.13
